Entry source: ChEMBL document CHEMBL1157539

Test system: Plasmodium falciparum
ASSAY_METHOD_TEXT: GSK_TCMDC: Inhibition of Plasmodium falciparum Dd2 in whole red blood cells, using parasite LDH activity as an index of growth. Test compounds present at 2uM
Format: functional
Hi! Just check whether Inhibition is below 50%. Below gives Fulfilled, equal or above gives Not fulfilled.

Worked set:
Cc1nc2c(=O)sc3ccccc3c2n1Cc1ccccc1; Fulfilled
COc1ccc(C(=O)N[C@@H](CC(C)C)C(=O)NC2CC[C@@H](C)N(C(=O)Nc3ccc(Cl)cc3)CC2=O)cc1OCCN1CCOCC1 (some centres not stated); Not fulfilled
CCNC(=O)NC1CCN(Cc2c(-c3cccs3)nc3ccccc3c2C(=O)N[C@@H](C)C2CCCCC2)CC1; Not fulfilled
CC(=O)Nc1cccc(CNc2cc(C)nc(Nc3ccc(C)cc3)n2)c1; Fulfilled
O=C(Nc1cccc(C(F)(F)F)c1)c1ccc(S(=O)(=O)NC2CCN(CC3CCCCC3)CC2)cc1.O=C(O)C(F)(F)F; Fulfilled
N#Cc1c(N)n(CCc2ccc(F)cc2)c2nc3ccccc3nc12; Fulfilled

input: Find out if reported Inhibition for COc1ccc2[nH]c(C(=O)Nc3ccc4[nH]c(-c5ccccc5)nc4c3)cc2c1.O=C(O)C(F)(F)F is less than 50%
output: Fulfilled

input: Find out if reported Inhibition for CCCCCOc1ccc(C(O)C(CCC(CN2CCCCCC2)C(O)c2ccc(OCCCCC)cc2)CN2CCCCCC2)cc1.Cl (configuration not stated) is less than 50%
output: Not fulfilled

input: Find out if reported Inhibition for CC(=O)Nc1cccc(NC(=O)CSc2ccc(-c3nc4ccccc4[nH]3)cn2)c1 is less than 50%
output: Not fulfilled

input: Find out if reported Inhibition for O=C(c1ccc(Cl)cc1)N1CCCC(C(=O)N(Cc2nnc(-c3ccccc3Cl)o2)C2CC2)C1 (configuration not stated) is less than 50%
output: Not fulfilled

input: Find out if reported Inhibition for COc1ccc(CCNCCCCCCNCCc2ccc(-c3ccccc3)cc2)cc1OC.Cl is less than 50%
output: Fulfilled

input: Find out if reported Inhibition for CCc1cn2c3c(cc(C(=O)N[C@@H](Cc4ccccc4)[C@H](O)CNC4CCC4)cc13)N(C)S(=O)(=O)CC2 is less than 50%
output: Not fulfilled

input: Find out if reported Inhibition for c1csc(-c2ccc3c(c2)CC(NCc2c[nH]c4cnccc24)C3)c1 (configuration not stated) is less than 50%
output: Fulfilled

input: Find out if reported Inhibition for CC(C)C[C@H](NC(=O)c1cc(-c2ccc(C(C)(C)C)cc2)no1)C(=O)O.CC(C)C[C@H](NC(=O)c1conc1-c1ccc(C(C)(C)C)cc1)C(=O)O is less than 50%
output: Fulfilled

input: Find out if reported Inhibition for COc1cc(OC)c(NC(=O)COc2ccc(C)cc2)cc1Cl is less than 50%
output: Not fulfilled

input: Find out if reported Inhibition for Br.C=CCc1cc(C)ccc1OCCCON1C(N)=NC(N)=NC1(C)C is less than 50%
output: Not fulfilled

input: Find out if reported Inhibition for O=C(NCCCN1CCCC1=O)NCc1ccccc1 is less than 50%
output: Fulfilled
